Each record here notes measured IC50.
target: Genome polyprotein (dengue virus type 2); test: Dengue-2 NS5 methyltransferase inhibitors, primary screen, biochemical, confirmation dose response (AID 588689); assay type: functional
Sequence (P29990 2492-3391 limits assumed): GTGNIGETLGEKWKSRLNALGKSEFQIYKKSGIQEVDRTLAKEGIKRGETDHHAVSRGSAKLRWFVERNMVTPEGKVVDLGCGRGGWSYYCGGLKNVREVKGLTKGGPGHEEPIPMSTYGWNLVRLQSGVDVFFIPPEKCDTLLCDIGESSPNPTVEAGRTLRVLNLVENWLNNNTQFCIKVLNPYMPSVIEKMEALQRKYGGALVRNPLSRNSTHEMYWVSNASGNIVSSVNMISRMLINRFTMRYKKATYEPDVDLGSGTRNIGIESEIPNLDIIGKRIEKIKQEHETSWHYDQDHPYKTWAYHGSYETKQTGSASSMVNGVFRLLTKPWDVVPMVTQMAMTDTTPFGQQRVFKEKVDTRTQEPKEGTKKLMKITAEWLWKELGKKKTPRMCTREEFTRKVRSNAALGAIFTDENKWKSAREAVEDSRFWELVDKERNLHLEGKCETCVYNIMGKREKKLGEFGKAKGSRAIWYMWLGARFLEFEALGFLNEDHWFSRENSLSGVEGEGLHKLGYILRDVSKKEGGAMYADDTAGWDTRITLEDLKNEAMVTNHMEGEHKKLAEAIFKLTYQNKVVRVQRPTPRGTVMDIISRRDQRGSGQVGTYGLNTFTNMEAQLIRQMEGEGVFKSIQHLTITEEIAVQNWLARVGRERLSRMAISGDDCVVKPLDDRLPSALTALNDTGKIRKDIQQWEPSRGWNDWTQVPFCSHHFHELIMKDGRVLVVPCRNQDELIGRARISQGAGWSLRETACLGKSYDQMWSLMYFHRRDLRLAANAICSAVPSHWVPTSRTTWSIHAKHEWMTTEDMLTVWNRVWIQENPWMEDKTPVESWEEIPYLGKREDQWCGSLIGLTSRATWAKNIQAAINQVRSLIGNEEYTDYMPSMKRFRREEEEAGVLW
The source made the active and inactive calls. How the calls were made is not given here.
measurementType: IC50

[[record]]
compound = "O=C(O)c1ccccc1-c1ccccc1C(=O)Nc1ccc2c(c1)oc(=O)c1ccccc12"
targetundertest = "Genome polyprotein (dengue virus type 2)"
observedmeasurement = "56.3 µM (active)"

[[record]]
compound = "CCn1nc([N+](=O)[O-])c(C(C#N)c2nc3ccccc3n2C)c(Cl)c1=O (stereo unspecified)"
targetundertest = "Genome polyprotein (dengue virus type 2)"
observedmeasurement = "> 100 µM (active)"

[[record]]
compound = "O=C(O)c1cc(Nc2cc(Cl)c3nonc3c2[N+](=O)[O-])ccc1O"
targetundertest = "Genome polyprotein (dengue virus type 2)"
observedmeasurement = "8.55 µM (active)"

[[record]]
compound = "Cc1cc(N2C(=O)C(O)=C(C(=O)c3ccco3)C2c2cccc(Oc3ccccc3)c2)no1 (stereo unspecified)"
targetundertest = "Genome polyprotein (dengue virus type 2)"
observedmeasurement = "64.6 µM (active)"

[[record]]
compound = "CCC(=O)OC1(C)C(=O)C2=COC(c3ccc(OC)cc3)=CC2=C(Br)C1=O (stereo unspecified)"
targetundertest = "Genome polyprotein (dengue virus type 2)"
observedmeasurement = "> 100 µM (active)"

[[record]]
compound = "O=C1NC(=O)C(=Cc2coc3ccccc3c2=O)C(=O)N1"
targetundertest = "Genome polyprotein (dengue virus type 2)"
observedmeasurement = "> 100 µM (active)"

